Target: TxtE-RhFRed (Streptomyces scabiei, UniProt C9ZDC6)
Sequence (C9ZDC6 1-406): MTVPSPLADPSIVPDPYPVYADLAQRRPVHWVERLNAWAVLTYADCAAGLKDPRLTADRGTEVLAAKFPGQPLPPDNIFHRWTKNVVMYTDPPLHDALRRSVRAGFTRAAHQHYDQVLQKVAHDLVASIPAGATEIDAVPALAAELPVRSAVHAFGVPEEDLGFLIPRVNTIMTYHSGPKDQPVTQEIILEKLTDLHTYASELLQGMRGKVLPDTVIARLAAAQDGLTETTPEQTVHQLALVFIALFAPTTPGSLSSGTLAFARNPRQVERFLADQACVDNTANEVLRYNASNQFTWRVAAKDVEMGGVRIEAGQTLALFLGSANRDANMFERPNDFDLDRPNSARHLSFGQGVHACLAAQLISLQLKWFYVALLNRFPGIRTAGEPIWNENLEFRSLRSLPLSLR
Sequence (Q8KU27 445-773 partner): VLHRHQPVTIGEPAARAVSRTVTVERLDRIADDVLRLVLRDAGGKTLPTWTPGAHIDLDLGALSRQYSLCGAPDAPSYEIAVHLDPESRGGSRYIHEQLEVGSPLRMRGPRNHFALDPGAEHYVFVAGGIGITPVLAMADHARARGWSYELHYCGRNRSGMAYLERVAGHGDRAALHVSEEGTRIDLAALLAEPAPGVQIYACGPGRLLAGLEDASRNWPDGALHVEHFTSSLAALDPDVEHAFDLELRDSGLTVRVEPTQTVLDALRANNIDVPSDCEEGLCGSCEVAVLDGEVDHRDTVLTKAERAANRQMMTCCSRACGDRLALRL
Experiment: Substrate binding affinity by UV-Vis spectral titration, TxtE-RhFRed
Design: species or system S. scabies 87.22
Settings: […] enzyme, 25 mM Tris-HCl pH 8.0
measurement-label: Kd (µM)
Answers are plain numbers, in µM.

Q: Entry N[C@@H](Cc1c[nH]c2ccccc12)C(=O)O : reported Kd = ?
Ans: 18.2

Where do these numbers come from? They come from patent US10550079B2.
